Parameter IC50, tested on Near full length human DGKα(S9-S727) (Homo sapiens (Human), UniProt P23743), listed per item.
Sequence (P23743 9-727): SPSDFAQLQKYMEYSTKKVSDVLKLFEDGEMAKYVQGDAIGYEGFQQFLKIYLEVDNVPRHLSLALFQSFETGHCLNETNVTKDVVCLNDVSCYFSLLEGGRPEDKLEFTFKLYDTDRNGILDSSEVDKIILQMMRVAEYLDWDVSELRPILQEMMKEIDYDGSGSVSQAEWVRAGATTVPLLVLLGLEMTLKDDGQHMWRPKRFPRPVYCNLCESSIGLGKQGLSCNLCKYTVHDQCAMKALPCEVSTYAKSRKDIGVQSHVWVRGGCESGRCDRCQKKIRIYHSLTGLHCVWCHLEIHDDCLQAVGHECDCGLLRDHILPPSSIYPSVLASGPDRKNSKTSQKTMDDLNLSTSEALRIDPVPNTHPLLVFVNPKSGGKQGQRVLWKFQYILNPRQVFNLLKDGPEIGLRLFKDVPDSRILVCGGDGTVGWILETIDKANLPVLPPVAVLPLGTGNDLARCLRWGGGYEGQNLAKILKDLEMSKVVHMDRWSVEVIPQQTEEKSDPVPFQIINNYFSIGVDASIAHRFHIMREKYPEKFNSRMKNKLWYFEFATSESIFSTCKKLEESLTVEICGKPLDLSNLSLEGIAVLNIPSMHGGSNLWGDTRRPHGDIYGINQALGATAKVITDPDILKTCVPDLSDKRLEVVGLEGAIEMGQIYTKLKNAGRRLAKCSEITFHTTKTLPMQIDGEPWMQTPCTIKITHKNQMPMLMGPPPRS
VALUE KIND: IC50 (nM)

>>> experimental_value("CN(Cc1nnnn1-c1ccc(C(F)(F)F)c(C#N)c1)C1CCCCC1")
280

I = CN(Cc1nnnn1-c1ccc(Cl)c(C#N)n1)C1CCCCC1
II = CC(C)N(C)Cc1nnnn1-c1ccc(Cl)c(C#N)c1
III = CN(Cc1nnnn1-c1ccc(C(F)(F)F)nc1)C1CCCCC1
Exercise: Please rank these compounds by IC50 in descending order. Lab note: final answer is the ordered label list.
Solution: II, III, I
(II: 8600 nM, III: 3600 nM, I: 1100 nM)

* * *

# STUDY SYSTEM: DGKα-YFP in Jurkat cells (Homo sapiens (Human), UniProt P23743)
# Sequence (P23743 whole entry): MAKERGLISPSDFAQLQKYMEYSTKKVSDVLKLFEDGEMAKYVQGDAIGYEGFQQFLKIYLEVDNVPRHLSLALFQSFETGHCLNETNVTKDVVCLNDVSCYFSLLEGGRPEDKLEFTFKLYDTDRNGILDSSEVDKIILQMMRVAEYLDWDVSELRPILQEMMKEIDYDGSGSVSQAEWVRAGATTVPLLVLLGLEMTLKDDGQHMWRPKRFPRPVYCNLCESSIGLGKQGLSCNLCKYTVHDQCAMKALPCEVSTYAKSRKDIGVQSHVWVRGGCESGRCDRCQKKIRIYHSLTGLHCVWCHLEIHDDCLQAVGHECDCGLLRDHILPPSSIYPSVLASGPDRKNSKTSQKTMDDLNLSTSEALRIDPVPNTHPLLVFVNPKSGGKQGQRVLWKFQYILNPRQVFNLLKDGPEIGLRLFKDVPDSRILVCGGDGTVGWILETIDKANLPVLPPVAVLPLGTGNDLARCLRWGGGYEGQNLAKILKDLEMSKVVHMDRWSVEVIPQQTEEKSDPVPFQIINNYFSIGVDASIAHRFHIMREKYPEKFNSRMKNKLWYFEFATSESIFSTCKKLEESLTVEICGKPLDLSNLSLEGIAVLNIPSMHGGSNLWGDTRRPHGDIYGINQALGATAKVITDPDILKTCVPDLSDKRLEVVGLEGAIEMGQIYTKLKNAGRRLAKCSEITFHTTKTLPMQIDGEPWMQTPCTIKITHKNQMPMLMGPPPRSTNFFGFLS
# TEST METHOD NOTES: In vitro DGKα translocation assay
# CONDITION DETAILS: 1 hour at 37° C., top concentration 10 μM, read-out: DGKalpha Translocation EC50
VALUE KIND: EC50 (nM)

>>> experimental_value("CN(Cc1nnnn1-c1ccc(C(F)(F)F)c(C#N)c1)C1CCCCC1")
820

1 = N#Cc1cc(-n2nnnc2CN(CC2CC2)C2CCCCC2)ccc1Cl
2 = CN(Cc1nnnn1-c1ccc(Cl)c(C#N)n1)C1CCCCC1
Exercise: Decide: 1 or 2 , by lowest recorded EC50. Field: selected label. Fill in the label of the entry you choose.
Solution: 1

* * *

// values below are pIC50; system is Full length human DGKα (Homo sapiens (Human), UniProt P23743);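 note: ADP-Glo luminescence assay of ADP formed by 5 nM full-length DGKα on extruded PS/DAG/PC liposomes with 150 µM ATP, 1 h reaction, 11-point inhibitor titration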
Sequence (P23743 other isoform, or with tags, fused parts or gaps): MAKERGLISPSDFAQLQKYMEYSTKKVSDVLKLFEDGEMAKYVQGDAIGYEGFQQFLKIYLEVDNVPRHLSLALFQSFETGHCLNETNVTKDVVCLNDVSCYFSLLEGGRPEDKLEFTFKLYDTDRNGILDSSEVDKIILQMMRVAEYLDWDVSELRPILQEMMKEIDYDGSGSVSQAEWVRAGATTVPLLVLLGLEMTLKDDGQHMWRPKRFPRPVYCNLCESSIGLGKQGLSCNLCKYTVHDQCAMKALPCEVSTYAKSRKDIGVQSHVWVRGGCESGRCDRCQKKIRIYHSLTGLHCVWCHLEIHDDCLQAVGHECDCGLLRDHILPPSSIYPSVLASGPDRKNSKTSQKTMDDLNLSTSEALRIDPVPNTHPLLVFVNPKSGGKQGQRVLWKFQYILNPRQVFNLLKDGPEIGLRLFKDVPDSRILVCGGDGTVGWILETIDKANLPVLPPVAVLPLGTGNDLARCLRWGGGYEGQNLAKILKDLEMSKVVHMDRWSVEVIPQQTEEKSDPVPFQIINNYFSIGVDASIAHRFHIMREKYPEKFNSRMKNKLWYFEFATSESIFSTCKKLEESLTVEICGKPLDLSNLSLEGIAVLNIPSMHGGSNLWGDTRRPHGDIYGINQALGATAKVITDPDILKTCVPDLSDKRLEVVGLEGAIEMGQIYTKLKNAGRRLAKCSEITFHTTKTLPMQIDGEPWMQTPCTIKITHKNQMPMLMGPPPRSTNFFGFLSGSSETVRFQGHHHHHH
pIC50: −log10 of the molar value.
VALUE KIND: pIC50

>>> experimental_value("COc1ccc(-n2nnnc2CN(C)C2CCCCC2)cc1")
4.25

a = CN(Cc1nnnn1-c1cccc(Br)c1)C1CCCCC1
b = N#Cc1nc(-n2nnnc2CN(CC2CC2)C2CCCCC2)ccc1Cl
Exercise: Of a versus b , which is the one with smaller reported pIC50? Give the chosen item's label as your response.
Solution: a
(a: 4.92, b: 5.51)

* * *

Values of IC50 reported for Full length human DGKα (Homo sapiens (Human)) appear below.
VALUE KIND: IC50 (µM)

These recorded examples may help you get a feel for the data.
>>> experimental_value("N#Cc1cc(-n2nnnc2CN(CC(O)c2ccccc2)C2CCCCC2)ccc1Cl (stereo not drawn)")
11
>>> experimental_value("Cc1ccc(-n2nnnc2CN(C)C2CCCCC2)cc1C#N")
0.14
>>> experimental_value("CCCCN(Cc1nnnn1-c1ccc(Cl)c(C#N)n1)C1CCCCC1")
15
>>> experimental_value("CN(Cc1nnnn1-c1ccc(F)c(C#N)c1)C1CCCCC1")
3.7
>>> experimental_value("CCCCN(Cc1nnnn1-c1ccc(Cl)c(C#N)c1)C1CCCCC1")
1.1

P = CC(C)CN(C)Cc1nnnn1-c1ccc(Cl)c(C#N)c1
Q = CCN(Cc1nnnn1-c1ccc(Cl)c(C#N)n1)C1CCCCC1
R = C=CCN(Cc1nnnn1-c1ccc(Cl)c(C#N)c1)C1CCCCC1
S = O=[N+]([O-])c1cccc(-n2nnnc2CN(CCO)C2CCCCC2)c1
Exercise: Arrange the 4 molecules from largest to smallest IC50. Reply with the labels, ordered as the question asks.
Solution: S, P, Q, R

a = N#Cc1cc(-n2nnnc2CN(CCO)C2CCCCC2)ccc1Cl
b = CN(Cc1nnnn1-c1ccc(Cl)c(C#N)n1)C1CCCCC1
c = CN(Cc1nnnn1-c1ccc(Cl)c(C(F)(F)F)c1)C1CCCCC1
d = N#Cc1nc(-n2nnnc2CN(CCO)C2CCCCC2)ccc1Cl
Exercise: Write the entries in order, lowest recorded IC50 first. As an answer, provide the labels arranged in the order called for.
Solution: b, a, c, d
